Target: pepsin (from porcine stomach mucosa) (Sus scrofa)
Sequence (P00791 60-385): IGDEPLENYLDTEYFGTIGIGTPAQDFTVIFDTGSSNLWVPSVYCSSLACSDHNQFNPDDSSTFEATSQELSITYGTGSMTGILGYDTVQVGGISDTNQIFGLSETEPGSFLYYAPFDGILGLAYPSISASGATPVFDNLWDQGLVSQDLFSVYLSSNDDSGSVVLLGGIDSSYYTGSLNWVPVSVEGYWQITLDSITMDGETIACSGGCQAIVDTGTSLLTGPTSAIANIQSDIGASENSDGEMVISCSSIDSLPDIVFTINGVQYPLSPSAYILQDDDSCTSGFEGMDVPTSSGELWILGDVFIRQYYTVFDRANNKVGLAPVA
Test: in vitro
Conditions: pig, pH 7.3
Square brackets hold non-standard residues; d marks the D form. Peptide text beside a SMILES is read from it.
measurement label: metabolised at 0.5 h, 140 μM (%)
Use % as the unit, but write only the number.

-- ask Annotate the compound CC(C)C[C@H](NC(=O)[C@H](CCCCN)NC(=O)[C@H](CC(C)C)NC(=O)[C@@H](CC(C)C)NC(=O)[C@H](CC(C)C)NC(=O)[C@@H](N)CCCCN)C(=O)N[C@@H](CC(C)C)C(=O)N[C@H](CCCCN)C(=O)N[C@H](CCCCN)C(=O)N[C@@H](CC(C)C)C(=O)N[C@@H](CC(C)C)C(=O)N[C@@H](CCCCN)C(=O)N[C@H](CC(C)C)C(=O)N[C@@H](CC(C)C)C(=O)N[C@@H](CCCCN)C(N)=O [Peptide 2, [D]-L^3,13,K^8,9-K6L9] (H-KL[dL]LKLL[dK][dK]LLK[dL]LK-NH2) with its measured metabolised at 0.5 h, 140 μM.
-- reply 10
